- Tested on: K-562 leukemia
- Measurement Protocol: NCI-60 one-dose screen, 48 h (100 = growth as untreated, 0 = no growth, -100 = all killed)
- Measurement Conditions: 10 µM unless noted
This is part of a sample that, as a whole, favours compounds with a hit. Of some 83,000 tested, about 20% had one in any assay.

# Molecule, Target Or Test System, Units, growth
records = [
    ("C=CCOc1ccc(/C=C2\\SC(=S)N(CCc3ccc(O)cc3)C2=O)cc1", "K-562 leukemia", "%", 62.1),
    ("COC(=O)c1c2c(c(C)[n+]([O-])c1C)C(=O)C(NCCN1CCOCC1)=CC2=O", "K-562 leukemia", "%", 75.6),
    ("CCNC(=S)n1nc(SC)c(C(=O)OCC)c1N", "K-562 leukemia", "%", 85.5),
    ("CC(=O)N1N=C(c2ccc(F)cc2)CC1c1sc(N(C)Cc2ccccc2)nc1Cl (stereo not drawn)", "K-562 leukemia", "%", 75.1),
    ("COc1ccc(Nc2ncnc3ccc(-c4cncc(NS(C)(=O)=O)c4)cc23)cc1Cl", "K-562 leukemia", "%", 28.1),
    ("CCCCCCCCCCCCCCCC[N+](C)(C)CCN(Cc1ccc(OC)cc1)c1ncccn1", "K-562 leukemia", "%", 35.5),
    ("O=C1N=c2ccccc2=C1c1sc(=S)n(C2CC(=O)N(c3ccc(Cl)cc3)C2=O)c1O (stereo not drawn)", "K-562 leukemia", "%", 94.4),
    ("Cc1ccc(C(=O)Nc2nc3c(s2)CN(Cc2ccccc2)CC3)cn1", "K-562 leukemia", "%", 36.8),
    ("COc1ccc(/C=C(\\C#N)c2cc3ccccc3[nH]2)cc1", "K-562 leukemia", "%", 11.4),
    ("[2H]C([2H])([2H])Oc1cccc(/C=C/C(=O)/C=C(/C=C/c2cccc(OC([2H])([2H])[2H])c2OC([2H])([2H])[2H])OB(F)F)c1OC([2H])([2H])[2H]", "K-562 leukemia", "%", 65.2),
    ("Nc1nc(Nc2cccnc2)sc1C(=O)c1ccccc1F", "K-562 leukemia", "%", 66.5),
    ("COc1cc(OC)cc(-c2ccc(-c3ccc(C(=N)N)cn3)s2)c1", "K-562 leukemia", "%", 0.742),
    ("O=c1oc2c(Br)cc(Br)cc2cc1-c1cc(-c2ccc(-c3cc(-c4cc5cc(Br)cc(Br)c5oc4=O)nc(-c4cc5cc(Br)cc(Br)c5oc4=O)c3)cc2)cc(-c2cc3cc(Br)cc(Br)c3oc2=O)n1", "K-562 leukemia", "%", 97.9),
    ("COc1cc(C=O)ccc1Oc1ccc([N+](=O)[O-])cc1[N+](=O)[O-]", "K-562 leukemia", "%", 97.3),
    ("O=C(CCCOc1ccc(Br)cc1)Nc1ncc(Cc2ccc(F)cc2)s1", "K-562 leukemia", "%", 37.1),
    ("CCCN1C(=O)/C(=c2\\sc3n(c2=O)NC2C(N=3)N(CC)C(=O)N2CC)c2ccccc21 (stereo not drawn)", "K-562 leukemia", "%", 13.7),
    ("O=C(NCc1cccnc1)/C(=C\\c1ccc(Br)cc1)S(=O)(=O)c1ccccc1", "K-562 leukemia", "%", 29.7),
    ("CCCN1C(=O)/C(=c2\\sc3n(c2=O)C2C(NN=3)N(CC)C(=O)N2CC)c2ccccc21 (stereo not drawn)", "K-562 leukemia", "%", 9.52),
    ("CCOC(=O)c1c(-c2ccc(OC)cc2)c(C#N)c2c(C#N)c(N)nn2c1N", "K-562 leukemia", "%", 5.64),
    ("Cc1c(CC(=O)OCCO)cc(-c2ccc(Cl)cc2)n1-c1ccccc1", "K-562 leukemia", "%", 70.5),
    ("COc1ccc(-c2cc(-c3cccnc3)nc3sc4c(Cl)nnnc4c23)cc1OC", "K-562 leukemia", "%", 15.8),
    ("Clc1ccc(CNc2ccc3nc(CCC4CCCCC4)[nH]c3c2)cc1", "K-562 leukemia", "%", 6.84),
    ("COc1cc(/C=C(/c2ccccc2)[N+](=O)[O-])c(OC)c2c1OCO2", "K-562 leukemia", "%", 0.225),
]

---

- Tested on: OVCAR-3 ovarian
- Measurement Protocol: NCI-60 one-dose screen, 48 h
- Measurement Conditions: 10 µM unless noted
Compounds without any hit were thinned out: in the full panel of roughly 83,000, 20% have a hit. Activity calls are given as the source filed them. The calls were made as follows: active = growth percent below 10; inactive = the rest.
Outcome codes: active, inactive

# Compound, Label Class
records = [
    ("C/C(=C(\\c1ccc(OCCN2CCOCC2)cc1)c1ccc(OC(=O)C2CCCCC2)cc1)c1ccc(Cl)cc1", "inactive"),
    ("COC(=O)c1nc(-c2ccc(C)cc2)oc1S(=O)(=O)c1ccc(Cl)cc1", "inactive"),
    ("COc1cc(/C=N/NC(=O)CCN2c3ccccc3Sc3ccccc32)cc(OC)c1OC", "inactive"),
    ("COc1ccc(Oc2nc(Nc3ccc(N4CCOCC4)cc3)ncc2NC(=O)c2cc(OC)cc(OC)c2)cc1", "inactive"),
    ("C=C(C)[C@@H]1CC[C@]2(C(=O)O)CC[C@]3(C)[C@H](CC[C@@H]4[C@@]5(C)CCC(N)C(C)(C)[C@@H]5CC[C@]43C)[C@@H]12 (some centres undefined)", "active"),
    ("O=C1OCC2=C1C(c1cccc(C(F)(F)F)c1)c1cc3c(cc1N2CCO)OCCO3 (centres undefined)", "active"),
    ("Nc1c(C(=O)Nc2ccncc2)sc2nc3c(cc12)CCCCCCCC3", "active"),
    ("COC(=O)c1[nH]nc(OC)c1C1(C(C#N)c2nc3ccccc3s2)CCCc2ccccc21 (centres undefined)", "inactive"),
    ("CC(=O)N1N=C(c2ccc(Nc3nc(Nc4ccc(F)cc4)nc(Nc4ccc(Cl)cc4)n3)cc2)CC1c1ccc(N(C)C)cc1 (centres undefined)", "inactive"),
]

---

- System: HOP-62 NSCLC
- Measurement Protocol: NCI-60 one-dose screen, 48 h
- Measurement Conditions: 10 µM unless noted
About 83,000 compounds went through this panel and 20% of them were active in at least one assay; those are over-represented in the sample as a whole. Activity calls are given as the source filed them. The calls were made as follows: active = growth percent below 10; inactive = the rest.
Outcome codes: 1 = active, 0 = inactive

# Molecule, Label Class
measured = [
    ("CCOC(=O)c1c(-c2ccc(C)cc2)c(C#N)c(=O)n(-c2cccc(C(F)(F)F)c2)c1N", 0),
    ("COc1ccc(C2Nc3nc(SC)nc(N)c3N=C3c4ccccc4CCC32)cc1 (centres undefined)", 0),
    ("O=C(c1ccc(Nc2nccc(NCCCNc3ccnc4cc(Cl)ccc34)n2)cc1)N1CCCCC1", 0),
    ("CCN(CC)CC(=O)Nc1ccc2ncnc(Nc3ccc(Oc4cccc(F)c4)c(Cl)c3)c2c1", 0),
    ("Clc1cccc(Nc2ncnc3ccc(-c4cncc(-n5cnnn5)c4)cc23)c1", 0),
    ("COc1cc(-c2nc3occn3c2-c2ccnc(NCCCNS(=O)(=O)c3ccc(O)cc3)n2)ccc1F", 0),
    ("C=C[C@]1(C)C=C2CC[C@@H]3C(C)(C)C(=O)CC[C@@]3(C)[C@@H]2CC1", 0),
    ("CCCNNC(=O)/C=C/c1ccc(CNCCc2c(C)[nH]c3ccccc23)cc1", 1),
    ("O=C([C@H]1C[C@H]1c1ccc(S(F)(F)(F)(F)F)cc1)N1CCN(c2cc(Cl)ccc2C(F)(F)F)CC1", 0),
]

---

- Tested on: IGROV1 ovarian
- Measurement Protocol: NCI-60 one-dose screen, 48 h
- Measurement Conditions: 10 µM unless noted
This is part of a sample that, as a whole, favours compounds with a hit. Of some 83,000 tested, about 20% had one in any assay. The source made the active and inactive calls. The calls were made as follows: active = growth percent below 10; inactive = the rest.
Outcome codes: label 1 for active, label 0 for inactive

# Molecule, Target Or Test System, Label Class
data = [
    ("O=C1/C(=C/c2ccc(-c3cccc(C(F)(F)F)c3)o2)SC(=S)N1CCc1ccc(O)cc1", "IGROV1 ovarian", "label 0"),
    ("N#C/C(=C\\c1ccc(Br)cc1)n1nnc2c(F)cccc21", "IGROV1 ovarian", "label 1"),
    ("COC(=O)N/N=C/c1c[n+]([O-])c2ccccc2[n+]1[O-]", "IGROV1 ovarian", "label 0"),
    ("O=C(NCCCN1CCCCC1)c1ccc(-c2nc3ccc4[nH]ncc4c3c3c2CCCC3)cc1", "IGROV1 ovarian", "label 0"),
    ("CCOc1ccccc1NC(=O)c1cc2ccccc2cc1O", "IGROV1 ovarian", "label 0"),
    ("Cc1ccc2nc3ccccc3c(NCc3ccc(Cl)cc3)c2c1", "IGROV1 ovarian", "label 0"),
    ("CN(C)CCCn1c2nc(=O)[nH]c(=O)c-2nc2cc(Cl)c(Cl)cc21", "IGROV1 ovarian", "label 0"),
    ("C#CCOc1cccc(Nc2ncc3ncn(C4CCN(C(=O)CCl)C4)c3n2)c1 (configuration not stated)", "IGROV1 ovarian", "label 1"),
    ("C[C@@H]1O[C@@H](O[C@H]2[C@@H](OC(=O)[C@]34CCC(C)(C)C[C@H]3C3=CC[C@@H]5[C@@]6(C)C[C@H](O)[C@H](O[C@@H]7O[C@H](CO)[C@@H](O)[C@H](O)[C@H]7O)[C@@](C)(CO)[C@@H]6CC[C@@]5(C)[C@]3(C)C[C@H]4O)OC[C@@H](O)[C@@H]2O)[C@H](O)[C@H](O[C@@H]2OC[C@@H](O)[C@H](O[C@@H]3OC[C@](O)(CO)[C@H]3O[C@@H]3OC[C@@H](O)[C@H](O)[C@H]3O)[C@H]2O)[C@H]1O[C@@H]1OC[C@](O)(CO)[C@H]1O", "IGROV1 ovarian", "label 0"),
    ("CCCCn1c(C(=O)c2c[nH]c3ccccc23)n[nH]c1=S", "IGROV1 ovarian", "label 0"),
    ("COc1cc(Cl)cc(-c2nn(C(=O)NS(=O)(=O)c3ccc(Cl)cc3)cc2-c2ccncc2)c1", "IGROV1 ovarian", "label 0"),
    ("COc1ccc(N2CCN(S(=O)(=O)c3oc(-c4ccccc4)nc3C#N)CC2)cc1", "IGROV1 ovarian", "label 0"),
    ("COC(=O)c1[nH]nc(OC)c1C1(C(C#N)c2nc3ccccc3s2)CCCc2ccccc21 (configuration not stated)", "IGROV1 ovarian", "label 0"),
    ("O=C1CCCCN1CCCCC#Cc1cccc(C#Cc2cccnc2)c1", "IGROV1 ovarian", "label 0"),
    ("O=C(Cc1ccc(F)cc1)c1ccccc1", "IGROV1 ovarian", "label 0"),
    ("COC(=O)[C@H]1Cc2c([nH]c3ccccc23)[C@@H](c2cccs2)N1", "IGROV1 ovarian", "label 0"),
    ("C=C[C@]1(C)C=C2CC[C@@H]3C(C)(C)C(=O)CC[C@@]3(C)[C@@H]2CC1", "IGROV1 ovarian", "label 0"),
]
